Test system: HCT-15
endpointName: GI50

CC(C)(C)OC(=O)n1c(Cl)c(C=O)c2ccccc21
27.1 µM

Req: Give reported GI50 for CCCCCCCCCCCCCCCCCc1cc(Cl)nc(Cl)n1 (HCT-15)
Resp: > 100 µM

Req: Give reported GI50 for O=S(=O)(c1ccc(NC(=S)N/N=C/c2ccccc2O)cc1)N1CCCCC1 (HCT-15)
Resp: < 0.01 µM

Req: Give reported GI50 for CC(C)(C)OC(=O)c1ccc(NCC2=CC(=O)C=CC2=O)cc1 (HCT-15)
Resp: 7.18 µM

Req: Give reported GI50 for CCC(C)Cn1c(C)nc2c1C(=O)c1ccccc1C2=O (stereo unspecified) (HCT-15)
Resp: 17.5 µM

Req: Give reported GI50 for O=C1NC2(CCN(CCCC3(c4ccc(F)cc4)OCCO3)CC2)Oc2ccccc21 (HCT-15)
Resp: 71.4 µM

###

System: SF-268
Test: NCI tumour cell line growth inhibition, 48 h
Activity calls are given as the source filed them. Cut-off read from the data, not from the text of the source: active = GI50 up to about 1.1 µM and inactive = higher.
endpointName: GI50

CC1(C)CNC(c2ccc3c(c2)Cc2cc(C4=NC(C)(C)CN4)ccc2-3)=N1
34.6 µM (inactive)

Req: Query GI50 for CCN(CC)/[N+]([O-])=N/OC
Resp: > 100 µM (inactive)

Req: Query GI50 for COc1cc(/C=N/N=C2NCCCCN2)ccc1O
Resp: > 100 µM (inactive)

Req: Query GI50 for [N-]=[N+]=Nc1nnc(CCCCc2nnc(N=[N+]=[N-])o2)o1
Resp: > 100 µM (inactive)

Req: Query GI50 for O=C1NC(c2ccc(O)cc2)C2CCC1C2 (stereo unspecified)
Resp: > 100 µM (inactive)

Req: Query GI50 for COc1ccc(/N=N/C(=N/NC(=O)c2ccc(C)cc2)c2ccc(N(CCC#N)CCC#N)cc2OC)cc1
Resp: > 100 µM (inactive)

###

A collection of compounds and their measured GI50
Test system: NCI-H460
Assay: NCI tumour cell line growth inhibition, 48 h
Active and inactive are the calls of the source. Cut-off read from the data, not from the text of the source: active = GI50 up to about 1.1 µM and inactive = higher.

Worked cases, GI50 given:
CCOC(=O)CNC(=O)C(CSC(=O)N(O)c1ccc(Cl)cc1)NC(=O)CCC(N)C(=O)OCC (centres undefined)
> 50 µM (inactive)
COC(=O)C1=C(C(=O)OC)C2(C)C=CC1O2 (centres undefined)
> 100 µM (inactive)
COc1ccc(C2Oc3c(c(O)cc4c3[C@H](c3ccc(O)cc3O)[C@H](O)C(c3ccc(O)c(O)c3)O4)C[C@@H]2O)cc1O (some centres undefined)
> 100 µM (inactive)
CCOc1ccccc1N1C(=O)C(=O)C(c2nc3ccccc3s2)C(=O)C1=O
26.4 µM (inactive)
O[C@@]1(c2cccs2)c2cccc(Cl)c2[C@](O)(c2cccs2)c2cccc(Cl)c21
16.9 µM (inactive)
Cn1c2ccccc2c2c3c(c4c5ccccc5n(C)c4c21)C(=O)N(c1ccccc1)C3=O
> 100 µM (inactive)

Req: Query GI50 for CCn1cnc2c(NC(C)=O)ncnc21
Resp: > 100 µM (inactive)

Req: Query GI50 for N#CC(NCCO)=C1C(=O)c2ccccc2C1=O
Resp: > 100 µM (inactive)

Req: Query GI50 for Cc1n[nH]c(=O)n1N1C(=O)c2ccccc2C1=O
Resp: > 100 µM (inactive)

###

A collection of compounds and their measured GI50
Tested on: DMS-273
Experiment: NCI tumour cell line growth inhibition, 48 h
Calls of active or inactive are those of the source. Cut-off read from the data, not from the text of the source: active = GI50 up to about 1.1 µM and inactive = higher.

Worked cases, GI50 given:
COC(=O)c1cc(C(=O)OC)c(CC(=O)C(=O)NC2C3CC4CC(C3)CC2C4)nc1CC(=O)C(=O)NC1C2CC3CC(C2)CC1C3 (stereo not drawn)
> 100 µM (inactive)
C=C(C)C(=O)O[C@H]1CC2=C[C@@H](C[C@@]3(C)O[C@@H]3[C@H]3OC(=O)C(=C)[C@@H]31)OC2=O [ELEPHANTOPIN]
2.79 µM (inactive)
COc1ccc(-c2cc(=O)c3ccccc3[nH]2)c(OC)c1
> 100 µM (inactive)
Cc1ccc(SC(C)/C=C/NNC2=NN=C(c3ccccc3)C(c3ccccc3)N2)cc1 (stereo not drawn)
32.5 µM (inactive)
COC(=O)C(=O)C(C(=O)C(=O)Nc1cc([N+](=O)[O-])ccc1[N+](=O)[O-])c1nc2ccc(C(=O)c3ccccc3)cc2nc1O (stereo not drawn)
22.4 µM (inactive)
CCCOc1ccc(/C(Cl)=C(\C=O)c2ccc(OC)c(OC)c2)cc1OCCC
3.72 µM (inactive)
O=C(Nc1cccc(O)c1)C(=O)C(C(=O)c1ccccc1F)C1OC(=O)c2ccccc21 (stereo not drawn)
24.2 µM (inactive)
CN1CCCc2nc3ccccc3n2C1
> 100 µM (inactive)

Req: Query GI50 for CCOP(=O)(OCC)C1C(=O)O[C@H]2CCCC[C@@H]12 (stereo partly drawn)
Resp: > 100 µM (inactive)

Req: Query GI50 for Nc1ncnc2c1sc(=S)n2-c1ccccc1
Resp: > 100 µM (inactive)

Req: Query GI50 for c1ccc(CCn2cncn2)cc1
Resp: > 100 µM (inactive)

Req: Query GI50 for COc1ccc(OC)c(NC(=O)C(=O)C(C(C)=O)c2nc3ccc(Cl)cc3nc2O)c1 (stereo not drawn)
Resp: > 50 µM (inactive)

Req: Query GI50 for CCOc1ccccc1N1C(=O)C(=O)C(c2nc3ccccc3s2)C(=O)C1=O
Resp: > 100 µM (inactive)

Req: Query GI50 for CCCCCCC(O)CC[C@H]1CCC[C@@H](C)N1 (stereo partly drawn)
Resp: > 100 µM (inactive)

Req: Query GI50 for Cn1c(=O)nc2n(-c3ccc(F)c(F)c3)c3ccccc3nc-2c1=O
Resp: 12.1 µM (inactive)

###

System: SNB-75
Assay: NCI tumour cell line growth inhibition, 48 h
Active and inactive are the calls of the source. Cut-off read from the data, not from the text of the source: active = GI50 up to about 1.1 µM and inactive = higher.
A collection of molecules and their measured GI50

Worked cases, GI50 given:
COC(C)(C)[C@H](O)C(O)CC(C)[C@@H]1CCC23CC12CCC1[C@@]2(C)CCC(OC(C)=O)C(C)(C)C2CC(OC2OC(COC(C)=O)C(O)C(O)C2O)[C@]13C (stereo partly drawn)
3.8 µM (inactive)
OC1[C@H](O)CN(OCc2ccccc2)C[C@@H]1O (stereo partly drawn)
> 100 µM (inactive)
C[C@@H]1CC[C@@]2(NC1)O[C@H]1C[C@H]3[C@@H]4CC[C@H]5C[C@@H](O)CC[C@]5(C)[C@H]4CC[C@]3(C)[C@H]1[C@@H]2C
61.9 µM (inactive)

Req: Query GI50 for CC(=O)OC[C@@H]1[C@H]2CC[C@]3(C)[C@@H](OC(C)=O)CC[C@H]3[C@@H]2CC[C@H]1C1(C)SCCS1
Resp: > 25 µM (inactive)

Req: Query GI50 for Cc1cc(-c2nc3ccc(F)cc3s2)ccc1NC(=O)C(N)CCCCN (stereo not drawn)
Resp: 4.83 µM (inactive)

Req: Query GI50 for CCCCCCCCCCCCOP(N)(=O)OCCCCCCCCCCCC
Resp: > 100 µM (inactive)

Req: Query GI50 for Cc1ccc(-n2c(C)n[nH]c2=O)cc1
Resp: > 100 µM (inactive)

Req: Query GI50 for COc1ccc2c(c1)nc1n2C(c2c(F)cccc2F)SC1 (stereo not drawn)
Resp: 39.3 µM (inactive)

###

Tested on: U-251
Experiment: NCI tumour cell line growth inhibition, 48 h
Activity calls are given as the source filed them. Rule as the data show it: active = GI50 up to about 1.1 µM and inactive = higher.
A collection of compounds and their measured GI50

CC(=O)OC[C@@H]1[C@H]2CC[C@]3(C)[C@@H](OC(C)=O)CC[C@H]3[C@@H]2CC[C@H]1C1(C)SCCS1
> 25 µM (inactive)
CCOP(=O)(OCC)C1C(=O)O[C@H]2CCCC[C@@H]12 (some centres undefined)
> 100 µM (inactive)
C=C1C[C@@H]2C[C@@H](C)CC(O)[C@]2(CCCN)C1O (some centres undefined)
> 100 µM (inactive)
CN(C)c1ccc(/C=C/c2cc[n+](C)c3ccccc23)cc1
2.75 µM (inactive)
Clc1ccc(Cc2nc3ccccc3nc2-c2cccc(Cl)c2)cc1
4.68 µM (inactive)

Req: Give reported GI50 for Oc1ccc2c3c1OC1C(=NN=C4CCC5(O)C6Cc7ccc(O)c8c7C5(CCN6CC5CC5)C4O8)CCC4(O)C(C2)N(CC2CC2)CCC314 (centres undefined) (U-251)
Resp: 17.7 µM (inactive)

Req: Give reported GI50 for C[C@@H]1CC[C@@]2(NC1)O[C@H]1C[C@H]3[C@@H]4CC[C@H]5C[C@@H](O)CC[C@]5(C)[C@H]4CC[C@]3(C)[C@H]1[C@@H]2C (U-251)
Resp: 61.2 µM (inactive)

Req: Give reported GI50 for CN(CCO)CCCC1COc2ccccc2O1 (centres undefined) (U-251)
Resp: > 100 µM (inactive)

Req: Give reported GI50 for COc1ccc(OC)c(NC(=O)CCC/C(CC(=O)c2ccc(O)c(OC)c2)=N\Nc2ccc([N+](=O)[O-])cc2)c1 (U-251)
Resp: 32.1 µM (inactive)
